- target_entity: Ephrin type-A receptor 4 (Homo sapiens) (UniProt P54764)
- Sequence (P54764 whole entry): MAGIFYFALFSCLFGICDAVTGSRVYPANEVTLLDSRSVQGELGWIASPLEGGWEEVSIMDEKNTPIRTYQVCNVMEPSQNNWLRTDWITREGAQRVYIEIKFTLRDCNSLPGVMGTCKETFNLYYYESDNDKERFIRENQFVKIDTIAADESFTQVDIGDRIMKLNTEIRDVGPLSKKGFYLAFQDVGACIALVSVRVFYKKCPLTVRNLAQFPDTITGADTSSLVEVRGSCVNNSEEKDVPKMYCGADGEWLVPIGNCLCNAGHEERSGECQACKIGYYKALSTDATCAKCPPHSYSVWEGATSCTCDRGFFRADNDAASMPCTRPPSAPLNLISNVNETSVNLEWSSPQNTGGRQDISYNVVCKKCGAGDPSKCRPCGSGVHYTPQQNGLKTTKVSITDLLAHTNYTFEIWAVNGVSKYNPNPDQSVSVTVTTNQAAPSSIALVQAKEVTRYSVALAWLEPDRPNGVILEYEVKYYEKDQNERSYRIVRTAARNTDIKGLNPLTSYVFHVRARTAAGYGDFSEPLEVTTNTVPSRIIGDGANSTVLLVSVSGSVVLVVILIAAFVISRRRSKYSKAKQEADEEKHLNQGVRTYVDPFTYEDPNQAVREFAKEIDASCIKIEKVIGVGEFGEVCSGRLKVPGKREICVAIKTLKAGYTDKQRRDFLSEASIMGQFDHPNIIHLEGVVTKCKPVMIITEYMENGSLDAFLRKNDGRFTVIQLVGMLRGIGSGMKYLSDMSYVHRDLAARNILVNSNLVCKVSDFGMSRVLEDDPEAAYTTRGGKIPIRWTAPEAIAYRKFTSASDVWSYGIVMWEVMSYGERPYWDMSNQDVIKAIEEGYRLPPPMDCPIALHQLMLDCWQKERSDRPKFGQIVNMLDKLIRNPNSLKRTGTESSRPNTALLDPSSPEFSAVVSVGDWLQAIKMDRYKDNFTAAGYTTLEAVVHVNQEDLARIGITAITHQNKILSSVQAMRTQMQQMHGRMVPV
- cond: at 1 µM
- Description: GSK_PKIS: EPHA4 mean inhibition at 1 uM [Nanosyn]
Entries and their measured inhibition follow.

smiles_code: O=S(=O)(CCOCc1ccc(-c2ccc3ncnc(Nc4ccc(OCc5cccc(F)c5)c(Cl)c4)c3c2)o1)c1ccccc1
inhibition [%]: 5.8
--
smiles_code: CN(c1ccc(NC(=O)Nc2ccc(OC(F)(F)F)cc2)cc1)c1ccnc(Nc2cccc(S(N)(=O)=O)c2)n1
inhibition [%]: 59.8
--
smiles_code: O=C1Nc2ccccc2/C1=C/Nc1ccc2[nH]c(=O)[nH]c2c1
inhibition [%]: 16.3
--
smiles_code: COC(=O)c1cncc(/C=C/c2c(C)cc(O)cc2C)c1
inhibition [%]: 66.6
--
smiles_code: CCS(=O)(=O)c1ccc(OC)c(Nc2ncc(-c3cccc(OC)c3)o2)c1
inhibition [%]: 12

* * *

- target_entity: Serine/threonine-protein kinase D1 (Homo sapiens) (UniProt Q15139)
- Sequence (whole entry): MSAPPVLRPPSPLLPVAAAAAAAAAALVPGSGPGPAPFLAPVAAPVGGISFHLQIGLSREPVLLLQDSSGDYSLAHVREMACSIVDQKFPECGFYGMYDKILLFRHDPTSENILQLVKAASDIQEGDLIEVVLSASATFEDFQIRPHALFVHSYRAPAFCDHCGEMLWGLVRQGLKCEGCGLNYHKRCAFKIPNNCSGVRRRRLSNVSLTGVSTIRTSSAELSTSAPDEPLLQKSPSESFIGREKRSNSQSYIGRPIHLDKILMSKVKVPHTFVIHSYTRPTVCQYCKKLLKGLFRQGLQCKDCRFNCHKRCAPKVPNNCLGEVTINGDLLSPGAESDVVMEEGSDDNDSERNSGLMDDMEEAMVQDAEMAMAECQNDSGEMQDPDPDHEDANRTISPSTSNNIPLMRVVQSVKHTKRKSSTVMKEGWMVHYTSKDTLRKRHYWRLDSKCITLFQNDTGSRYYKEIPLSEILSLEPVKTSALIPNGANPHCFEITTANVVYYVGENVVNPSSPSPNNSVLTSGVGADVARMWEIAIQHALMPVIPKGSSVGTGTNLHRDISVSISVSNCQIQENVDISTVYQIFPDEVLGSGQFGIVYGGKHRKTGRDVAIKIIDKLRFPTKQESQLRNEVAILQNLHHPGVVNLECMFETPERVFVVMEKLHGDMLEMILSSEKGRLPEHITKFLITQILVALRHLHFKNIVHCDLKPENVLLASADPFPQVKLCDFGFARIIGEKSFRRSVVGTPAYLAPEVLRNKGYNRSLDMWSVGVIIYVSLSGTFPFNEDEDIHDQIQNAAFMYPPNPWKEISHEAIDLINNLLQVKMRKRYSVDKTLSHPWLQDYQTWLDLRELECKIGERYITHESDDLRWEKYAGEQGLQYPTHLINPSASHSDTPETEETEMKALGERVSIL
- cond: at 1 µM
Listed below: inhibition values for each entry.

smiles_code: COc1cc(Nc2nccc(-c3cnn4ncccc34)n2)cc(OC)c1
target_entity: Serine/threonine-protein kinase D1 (Homo sapiens) (UniProt Q15139)
inhibition [%]: 16.4
//
smiles_code: COC(=O)c1ccc2c(c1)C(=Cc1cc(Br)c(O)c(Br)c1)C(=O)N2
target_entity: Serine/threonine-protein kinase D1 (Homo sapiens) (UniProt Q15139)
inhibition [%]: 7.26
//
smiles_code: COc1cccc(-n2ncc3c(N/N=C/c4ccc(C)cc4)ncnc32)c1
target_entity: Serine/threonine-protein kinase D1 (Homo sapiens) (UniProt Q15139)
inhibition [%]: 10.7
//
smiles_code: Cc1nc(-c2ccccc2)n2nc(NCCCN3CCOCC3)ncc12
target_entity: Serine/threonine-protein kinase D1 (Homo sapiens) (UniProt Q15139)
inhibition [%]: 3.13
//
smiles_code: CC(C)c1ccc2c(c1)NC(=O)/C2=N/Nc1ccc(S(N)(=O)=O)cc1
target_entity: Serine/threonine-protein kinase D1 (Homo sapiens) (UniProt Q15139)
inhibition [%]: 0.8
//
smiles_code: N#Cc1c(NC(=O)c2ccccc2F)sc2c1CCCC2
target_entity: Serine/threonine-protein kinase D1 (Homo sapiens) (UniProt Q15139)
inhibition [%]: 0.24
//
smiles_code: Oc1cccc(-c2nc(-c3ccccc3)[nH]c2-c2ccncc2)c1
target_entity: Serine/threonine-protein kinase D1 (Homo sapiens) (UniProt Q15139)
inhibition [%]: 5.51
//
smiles_code: c1ccc(Nc2ncc(-c3ccccc3)o2)cc1
target_entity: Serine/threonine-protein kinase D1 (Homo sapiens) (UniProt Q15139)
inhibition [%]: 7.71
//
smiles_code: NS(=O)(=O)c1ccc(-c2cc3ccncc3cc2OCc2ccccc2)cc1
target_entity: Serine/threonine-protein kinase D1 (Homo sapiens) (UniProt Q15139)
inhibition [%]: 2.75
//
smiles_code: NC(=O)c1sc(-n2cnc3ccccc32)cc1OCc1ccccc1Br
target_entity: Serine/threonine-protein kinase D1 (Homo sapiens) (UniProt Q15139)
inhibition [%]: 9.59
//
smiles_code: C[C@@H](Oc1cc(-n2cnc3ccc(OC[C@@H](O)CO)cc32)sc1C(N)=O)c1ccccc1Cl
target_entity: Serine/threonine-protein kinase D1 (Homo sapiens) (UniProt Q15139)
inhibition [%]: 0.36
//
smiles_code: O=S(=O)(CCOCc1ccc(-c2ccc3ncnc(Nc4ccc(OCc5cccc(F)c5)c(Cl)c4)c3c2)o1)c1ccccc1
target_entity: Serine/threonine-protein kinase D1 (Homo sapiens) (UniProt Q15139)
inhibition [%]: 2.02
//
smiles_code: CN1CCN(C(=O)c2ccc(NC(=O)Nc3ccc(N(C)c4ccnc(Nc5ccc(CS(C)(=O)=O)cc5)n4)cc3)cc2)CC1
target_entity: Serine/threonine-protein kinase D1 (Homo sapiens) (UniProt Q15139)
inhibition [%]: 6.28
//
smiles_code: Nc1ccc(C#Cc2cncnc2Nc2ccc(OCc3cccc(F)c3)c(Cl)c2)cc1
target_entity: Serine/threonine-protein kinase D1 (Homo sapiens) (UniProt Q15139)
inhibition [%]: 3.44
//
smiles_code: CN(C)C(=O)O[C@H]1CN[C@H](C#Cc2cc3ncnc(Nc4ccc(OCc5cccc(F)c5)c(Cl)c4)c3s2)C1
target_entity: Serine/threonine-protein kinase D1 (Homo sapiens) (UniProt Q15139)
inhibition [%]: 2.68
//
smiles_code: NS(=O)(=O)c1ccc(NC=C2C(=O)Nc3ccc4ncsc4c32)cc1
target_entity: Serine/threonine-protein kinase D1 (Homo sapiens) (UniProt Q15139)
inhibition [%]: 78.4
//
smiles_code: C[C@@H](Oc1cc(-n2cnc3ccc(OCC4CCN(C)CC4)cc32)sc1C(N)=O)c1ccccc1C(F)(F)F
target_entity: Serine/threonine-protein kinase D1 (Homo sapiens) (UniProt Q15139)
inhibition [%]: 12.1
//
smiles_code: Cc1ccc(Nc2ccnc(Nc3cccc(C(N)=O)c3)n2)cc1O
target_entity: Serine/threonine-protein kinase D1 (Homo sapiens) (UniProt Q15139)
inhibition [%]: 12.1
//
smiles_code: NS(=O)(=O)c1ccc(Nc2cc(-c3cccc(O)c3)n[nH]2)cc1
target_entity: Serine/threonine-protein kinase D1 (Homo sapiens) (UniProt Q15139)
inhibition [%]: 11.4
//
smiles_code: NS(=O)(=O)c1ccc(N/N=C2\C(=O)Nc3ccc(Cl)cc32)cc1
target_entity: Serine/threonine-protein kinase D1 (Homo sapiens) (UniProt Q15139)
inhibition [%]: 7.47
//
smiles_code: COc1cc2ncnc(Nc3ccc(C)c(O)c3)c2cc1OC
target_entity: Serine/threonine-protein kinase D1 (Homo sapiens) (UniProt Q15139);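 note: each value is an averaged percent inhibition of PRKD1 kinase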
inhibition [%]: 9.92

* * *

- target_entity: Ribosomal protein S6 kinase beta-1 (Homo sapiens) (UniProt P23443)
- Sequence (P23443 whole entry, looked up): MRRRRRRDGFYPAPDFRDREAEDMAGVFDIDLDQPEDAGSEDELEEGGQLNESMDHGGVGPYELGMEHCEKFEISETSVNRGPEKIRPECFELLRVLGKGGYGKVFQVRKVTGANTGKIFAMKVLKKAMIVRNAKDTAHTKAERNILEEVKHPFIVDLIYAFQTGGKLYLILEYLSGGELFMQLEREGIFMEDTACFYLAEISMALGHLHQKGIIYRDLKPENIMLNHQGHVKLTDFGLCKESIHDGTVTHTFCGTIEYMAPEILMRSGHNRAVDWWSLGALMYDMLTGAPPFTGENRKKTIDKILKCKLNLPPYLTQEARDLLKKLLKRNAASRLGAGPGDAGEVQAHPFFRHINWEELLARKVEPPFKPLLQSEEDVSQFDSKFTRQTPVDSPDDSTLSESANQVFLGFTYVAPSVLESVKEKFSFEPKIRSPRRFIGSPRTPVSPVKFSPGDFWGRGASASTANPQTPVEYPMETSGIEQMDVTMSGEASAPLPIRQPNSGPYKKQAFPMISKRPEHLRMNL
- cond: at 0.1 µM
Entries annotated with measured inhibition

molecule: Cc1ccc(O)cc1Nc1ccnc2ccc(S(C)(=O)=O)cc12
target_entity: Ribosomal protein S6 kinase beta-1 (Homo sapiens) (UniProt P23443)
inhibition / %: 3.76
//
molecule: COc1cc(Nc2nccc(-c3cnn4ncccc34)n2)cc(OC)c1
target_entity: Ribosomal protein S6 kinase beta-1 (Homo sapiens) (UniProt P23443)
inhibition / %: 1.87
//
molecule: CCS(=O)(=O)c1ccc(OC)c(Nc2nccc(N(C)c3ccc4c(C)n[nH]c4c3)n2)c1
target_entity: Ribosomal protein S6 kinase beta-1 (Homo sapiens) (UniProt P23443)
inhibition / %: 0.02
//
molecule: O=C1Nc2ccc(-c3cccnc3)cc2C1=Cc1cc(Br)c(O)c(Br)c1
target_entity: Ribosomal protein S6 kinase beta-1 (Homo sapiens) (UniProt P23443)
inhibition / %: 2.32
//
molecule: ON=C1CCc2cc(-c3nc(C4CCNCC4)[nH]c3-c3ccncc3)ccc21
target_entity: Ribosomal protein S6 kinase beta-1 (Homo sapiens) (UniProt P23443)
inhibition / %: 0.43
//
molecule: CCCN1CCCC(c2ccc(Nc3nc(Nc4cc(F)ccc4C(N)=O)c4cc[nH]c4n3)c(OC)c2)C1 (centres undefined)
target_entity: Ribosomal protein S6 kinase beta-1 (Homo sapiens) (UniProt P23443)
inhibition / %: 1.93
//
molecule: Oc1cccc(-c2nc(-c3ccccc3)[nH]c2-c2ccncc2)c1
target_entity: Ribosomal protein S6 kinase beta-1 (Homo sapiens) (UniProt P23443)
inhibition / %: 1.55
//
molecule: COc1cc2ncnc(Nc3ccc(C)c(O)c3)c2cc1OC
target_entity: Ribosomal protein S6 kinase beta-1 (Homo sapiens) (UniProt P23443)
inhibition / %: 3.34
//
molecule: CS(=O)(=O)CCNCc1nc(-c2ccc3ncnc(Nc4ccc(OCc5cccc(C(F)(F)F)c5)cc4)c3c2)cs1
target_entity: Ribosomal protein S6 kinase beta-1 (Homo sapiens) (UniProt P23443)
inhibition / %: 1.22
//
molecule: Cc1nc(-c2ccccc2)n2nc(NCCCN3CCOCC3)ncc12
target_entity: Ribosomal protein S6 kinase beta-1 (Homo sapiens) (UniProt P23443)
inhibition / %: 1.34
//
molecule: Nc1nccc(-c2c(-c3ccc(F)cc3)nn3cc(C(F)(F)F)ccc23)n1
target_entity: Ribosomal protein S6 kinase beta-1 (Homo sapiens) (UniProt P23443)
inhibition / %: -0.77
//
molecule: NS(=O)(=O)c1ccc(NC=C2C(=O)Nc3ccc4ncsc4c32)cc1
target_entity: Ribosomal protein S6 kinase beta-1 (Homo sapiens) (UniProt P23443)
inhibition / %: 5.33
//
molecule: Cc1ccc2c(c1)/C(=N/Nc1ccc(S(N)(=O)=O)cc1)C(=O)N2
target_entity: Ribosomal protein S6 kinase beta-1 (Homo sapiens) (UniProt P23443)
inhibition / %: 0.52
//
molecule: Cc1ccc2c(-c3ccnc(Nc4cccc(C(F)(F)F)c4)n3)c(-c3ccccc3)nn2n1
target_entity: Ribosomal protein S6 kinase beta-1 (Homo sapiens) (UniProt P23443)
inhibition / %: 2.1
//
molecule: COC(=O)c1cncc(/C=C/c2c(C)cc(O)cc2C)c1
target_entity: Ribosomal protein S6 kinase beta-1 (Homo sapiens) (UniProt P23443)
inhibition / %: 1.37
//
molecule: CCn1c(-c2nonc2N)nc2c(C#CC(C)(C)O)nc(OCCNC)cc21
target_entity: Ribosomal protein S6 kinase beta-1 (Homo sapiens) (UniProt P23443)
inhibition / %: 3.31
//
molecule: COc1cc2ncn(-c3cc(OCc4ccccc4S(C)(=O)=O)c(C#N)s3)c2cc1OC
target_entity: Ribosomal protein S6 kinase beta-1 (Homo sapiens) (UniProt P23443)
inhibition / %: 3.14
//
molecule: Cc1cc(Cl)cc2c1NC(=O)C2=NNc1ccc(S(N)(=O)=O)cc1
target_entity: Ribosomal protein S6 kinase beta-1 (Homo sapiens) (UniProt P23443)
inhibition / %: 0.25
//
molecule: CCS(=O)(=O)c1ccc(OC)c(Nc2ncc(-c3cccc(OC)c3)o2)c1
target_entity: Ribosomal protein S6 kinase beta-1 (Homo sapiens) (UniProt P23443)
inhibition / %: 0.98
//
molecule: Cc1cc(O)cc(C)c1/C=C/c1cncc(C(=O)N(C)C)c1
target_entity: Ribosomal protein S6 kinase beta-1 (Homo sapiens) (UniProt P23443)
inhibition / %: 0.39
//
molecule: NC(=O)c1cccc(Nc2nccc(Nc3cccc(F)c3)n2)c1
target_entity: Ribosomal protein S6 kinase beta-1 (Homo sapiens) (UniProt P23443)
inhibition / %: 0.38
//
molecule: FC(F)(F)c1ccc(-c2nn3ncccc3c2-c2ccnc(Nc3ccc4c(c3)OCCO4)n2)cc1
target_entity: Ribosomal protein S6 kinase beta-1 (Homo sapiens) (UniProt P23443)
inhibition / %: 1.5
//
molecule: COC(=O)Nc1nc2cc(Oc3ccc(NC(=O)Nc4cccc(Br)c4)cc3)ccc2[nH]1
target_entity: Ribosomal protein S6 kinase beta-1 (Homo sapiens) (UniProt P23443)
inhibition / %: 2
//
molecule: Cc1ccc2c(-c3ccnc(Nc4ccc5c(c4)OCCO5)n3)c(-c3ccc(C(F)(F)F)cc3)nn2n1
target_entity: Ribosomal protein S6 kinase beta-1 (Homo sapiens) (UniProt P23443)
inhibition / %: 0.35
//
molecule: NS(=O)(=O)c1cccc(Nc2cc(-c3ccc(F)cc3)n[nH]2)c1
target_entity: Ribosomal protein S6 kinase beta-1 (Homo sapiens) (UniProt P23443)
inhibition / %: 1.79
//
molecule: CN(C)C(=O)O[C@H]1CN[C@H](C#Cc2cc3ncnc(Nc4ccc(OCc5cccc(F)c5)c(Cl)c4)c3s2)C1
target_entity: Ribosomal protein S6 kinase beta-1 (Homo sapiens) (UniProt P23443)
inhibition / %: 0.89
//
molecule: CN(C)C(=O)O[C@@H]1CN[C@@H](C#Cc2cc3ncnc(Nc4ccc(OCc5cccc(F)c5)c(Cl)c4)c3s2)C1
target_entity: Ribosomal protein S6 kinase beta-1 (Homo sapiens) (UniProt P23443)
inhibition / %: 0.37
//
molecule: COc1cc2ncnc(Nc3ccc4c(cnn4Cc4ccccc4)c3)c2cc1OC
target_entity: Ribosomal protein S6 kinase beta-1 (Homo sapiens) (UniProt P23443)
inhibition / %: 0.98
//
molecule: C[C@@H](Oc1cc(-n2cnc3ccc(OCC4CCN(C)CC4)cc32)sc1C(N)=O)c1ccccc1C(F)(F)F
target_entity: Ribosomal protein S6 kinase beta-1 (Homo sapiens) (UniProt P23443)
inhibition / %: 0.24
//
molecule: CC(C)c1ccc2c(c1)NC(=O)/C2=N/Nc1ccc(S(N)(=O)=O)cc1
target_entity: Ribosomal protein S6 kinase beta-1 (Homo sapiens) (UniProt P23443)
inhibition / %: -0.81
//
molecule: COc1ccc2ncnc(Nc3ccc(OCc4ccccc4)cc3)c2c1
target_entity: Ribosomal protein S6 kinase beta-1 (Homo sapiens) (UniProt P23443)
inhibition / %: 1.08
//
molecule: CCOc1nccc2c1nc(-c1nonc1N)n2CC
target_entity: Ribosomal protein S6 kinase beta-1 (Homo sapiens) (UniProt P23443)
inhibition / %: 13.4
//
molecule: COc1cccc(-n2ncc3c(N/N=C/c4ccc(C)cc4)ncnc32)c1
target_entity: Ribosomal protein S6 kinase beta-1 (Homo sapiens) (UniProt P23443)
inhibition / %: 2.62
//
molecule: Nc1nccc(-c2c(-c3ccc(F)cc3)ncn2CCCN2CCOCC2)n1
target_entity: Ribosomal protein S6 kinase beta-1 (Homo sapiens) (UniProt P23443);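 note: reported value is the mean inhibition of p70S6K1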
inhibition / %: 1.35

The origin of these recorded values is ChEMBL document CHEMBL1961873.
